meta.source: ChEMBL document CHEMBL1158133

tested on: Lu1; assay: Cytotoxicity against human Lu1 cells; assay type: functional; details: read-out: ED50 (the source's name)
MEASURED_ENDPOINT: EC50

Here's what some known entries look like.
# MOLECULE, TARGET_DESC, EC50
records = [
    ("COc1cc2ccc(=O)oc2cc1O", "Lu1", "> 5 µg/mL"),
    ("CC(C)CC(=O)NC1CCCN1C(=O)/C=C/c1ccccc1 (centres undefined) [AGLAMIDE C]", "Lu1", "> 5 µg/mL"),
    ("C[S+]([O-])/C=C/C(=O)NC1CCCN1C(=O)/C=C/c1ccccc1 (centres undefined) [AGLAMIDE B]", "Lu1", "> 5 µg/mL"),
    ("COc1ccc([C@@]23Oc4cc5c(c(OC)c4[C@]2(O)[C@H](OC(C)=O)[C@H](C(=O)N(C)C)[C@H]3c2ccccc2)OCO5)cc1OC", "Lu1", "0.5 µg/mL"),
    ("COc1ccc([C@]23Oc4cc5c(c(OC)c4[C@](O)([C@H](c4ccccc4)[C@H]2C(=O)N2CCCC2NC(=O)CC(C)C)[C@@H]3O)OCO5)cc1 (some centres undefined)", "Lu1", "> 5 µg/mL"),
    ("COc1ccc([C@@]23Oc4cc5c(c(OC)c4[C@]2(O)[C@H](O)[C@H](C(=O)N(C)C)[C@H]3c2ccccc2)OCO5)cc1", "Lu1", "0.04 µg/mL"),
]

Ask: Answer with reported EC50 of COc1ccc(C2C(=O)Oc3cc4c(c(OC)c32)OCO4)cc1 (centres undefined)
Reply: > 5 µg/mL

Ask: Give the measured EC50 for COC(=O)[C@@]1(c2ccc(OC)cc2)Oc2cc3c(c(OC)c2C(=O)[C@H](C(=O)N2CCC[C@@H]2NC(=O)C=C(C)C)[C@H]1c1ccccc1)OCO3 [19,20-DEHYDROEDULISONE A]
Reply: > 5 µg/mL

Ask: Supply reported EC50 belonging to this molecule: COc1ccc(-c2oc3cc(OC)c(OC)c(O)c3c(=O)c2OC)cc1
Reply: > 5 µg/mL

###

assay: Cytotoxicity against HUVEC; type: cell-based; details: human, HUVEC cells; read-out: ED50 (the source's name)
Recorded CC50 for the following compounds

Example results:
# COMPOUND, CC50
rows = [
    ("CS/C=C/C(=O)NC1CCCN1C(=O)/C=C/c1ccccc1 (centres undefined) [AGLAMIDE A]", "> 5 µg/mL"),
    ("COC1CCCN1C(=O)/C=C/c1ccccc1 (centres undefined) [AGLAMIDE D]", "> 5 µg/mL"),
    ("COc1ccc([C@]23Oc4cc5c(c(OC)c4[C@](O)([C@H](C(=O)N4CCCC4NC(=O)C=C(C)C)[C@H]2c2ccccc2)[C@@H]3O)OCO5)cc1 (some centres undefined) [19,20-DEHYDROEDULIRIN A]", "> 5 µg/mL"),
    ("COc1ccc([C@@]23Oc4cc5c(c(OC)c4[C@]2(O)[C@H](O)[C@H](C(=O)N(C)C)[C@H]3c2ccccc2)OCO5)cc1", "0.1 µg/mL"),
    ("CC(C)CC(=O)NC1CCCN1C(=O)/C=C/c1ccccc1 (centres undefined) [AGLAMIDE C]", "> 5 µg/mL"),
    ("COc1ccc([C@]23Oc4cc5c(c(OC)c4[C@](O)([C@H](c4ccccc4)[C@H]2C(=O)N2CCCC2NC(=O)CC(C)C)[C@@H]3O)OCO5)cc1 (some centres undefined)", "> 5 µg/mL"),
    ("COc1ccc(-c2oc3cc(OC)c(OC)c(O)c3c(=O)c2OC)cc1", "> 5 µg/mL"),
    ("COc1ccc([C@@]23Oc4cc5c(c(OC)c4[C@]2(O)[C@H](OC(C)=O)[C@H](C(=O)N(C)C)[C@H]3c2ccccc2)OCO5)cc1", "0.5 µg/mL"),
]

Ask: Input COc1ccc([C@]23Oc4cc5c(c(OC)c4[C@](O)([C@H](C(=O)N4CCCC4NC(=O)CC(C)C)[C@H]2c2ccccc2)[C@@H]3OC(C)=O)OCO5)cc1 (some centres undefined) , output reported CC50.
Reply: > 5 µg/mL
